Every entry's value here was drawn from PubChem BioAssay (NCI).

Listing of entries alongside the reported TGI.
# Tested on: HOP-18 NSCLC
# RUN DESCRIPTION: NCI tumour cell line growth inhibition, 48 h
MEASURED QUANTITY: TGI

{"columns": ["MOLECULE", "MEASURED QUANTITY", "RESULT"],
 "data": [
  ["O=C1/C(=C/c2ccccc2)CN(C(=O)Oc2ccccc2)C/C1=C\\c1ccccc1", "TGI", "> 100 µM"],
  ["Cc1cc(N)c2cc(NC(=O)CCCCCCCCC(=O)Nc3ccc4nc(C)cc(N)c4c3)ccc2n1", "TGI", "> 100 µM"],
  ["c1cc[c]([Sn]([O]c2cccc3cccnc23)([c]2ccccc2)[c]2ccccc2)cc1", "TGI", "0.0389 µM"],
  ["N#CC(N)(C(=O)C(=O)NCCCNC(=O)C(=O)C(N)(C#N)c1ccc(Cl)cc1)c1ccc(Cl)cc1 (centres undefined)", "TGI", "> 100 µM"],
  ["COc1ccc(CN[C@H]2CCc3cc(OC)c(OC)c(OC)c3-c3ccc(SC)c(=O)cc32)c(OC)c1OC", "TGI", "> 100 µM"],
  ["NC(=O)COc1ccc(Br)cc1Br", "TGI", "> 100 µM"],
  ["O=[N+]([O-])C1(CO)COC2(OC1)c1ccccc1-c1ccccc12", "TGI", "> 100 µM"],
  ["C=CCN1C(=O)C/C(=C2/CCC(=O)N2CC=C)C1=O", "TGI", "> 100 µM"],
  ["CC(=O)OC1CC2C(C)(C)C(=O)C=C[C@]2(C)C2CCC3(C)C(=CCC3[C@H](CO)C[C@H](O)C(=O)C(C)(C)O)[C@]12C (some centres undefined)", "TGI", "> 100 µM"],
  ["CCc1cc2c(c3[nH]ccc13)[C@@H](C)C[C@H]2C", "TGI", "37.2 µM"],
  ["COC(=O)C1=C(c2cc(OC)c(OC)c(OC)c2)OC(c2cc(OC)c(OC)c(OC)c2)C1 (centres undefined)", "TGI", "50.2 µM"],
  ["O=C(O)CNCc1c2ccccc2nc2ccccc12", "TGI", "> 100 µM"],
  ["Cc1cccc2c1C(=O)OC2(c1cccc2ccccc12)c1cccc2ccccc12", "TGI", "> 100 µM"],
  ["CC1[C@@H]2C[C@@H]3O[C@@]34[C@H]3CCC5Cc6nc7c(nc6C[C@@]5(C)C3(O)CC(=O)[C@@]24CO[C@]12OC(C)(C)CC2O)CC1CC[C@@H]2C3=C[C@H]4O[C@@]5(O[C@@](C)(CO)C[C@@H]5O)C(C)[C@@]4(O)[C@]3(C)[C@@H](O)CC2[C@]1(C)C7 (some centres undefined)", "TGI", "> 3.52 µM"]
]}

###

# Tested on: KM12 colon
# RUN DESCRIPTION: NCI tumour cell line growth inhibition, 48 h

{"columns": ["MOLECULE", "TGI"],
 "data": [
  ["COC(=O)C12CC(NC(=O)c3csc([C@@H](C[C@H](C(C)C)N(C)C(=O)[C@@H](NC(=O)[C@H]4CCCCN4C)C(C)C)OC(C)=O)n3)(C1)C2", "> 33.3 µM"],
  ["CC(C)S(=O)(=O)ON1C(=O)c2ccc([N+](=O)[O-])cc2C1=O", "> 100 µM"],
  ["COc1ccc(C2CCc3c(cnc4nc(N)nc(N)c34)C2)cc1 (stereo unspecified)", "> 100 µM"],
  ["S=C1NNC(=S)NN1", "> 1 µM"],
  ["CO/C=C(/C(=O)OC)c1ccccc1[C@H]1C[C@@H]1c1ccccc1", "49 µM"],
  ["C/C(=N/OCCC(=O)O)C1CC1", "> 100 µM"],
  ["C/C(CC(=O)Nc1cc(Cl)c(Cl)cc1Cl)=N\\NS(=O)(=O)c1ccc(C)cc1", "> 100 µM"],
  ["CC1CC(=O)CC[C@@H]1OCc1ccccc1 (stereo partly specified)", "> 100 µM"],
  ["Cc1cccc(Cc2cnc(NC(=O)/C=C/c3ccco3)s2)c1", "> 100 µM"],
  ["O=C(OCC(OC(=O)c1ccccc1)C1CC(C(O)C2CCCCC2)C(=O)O1)c1ccccc1 (stereo unspecified)", "> 100 µM"],
  ["CCc1cc(Nc2nccc(-c3c(-c4ccc(OC)c(C(=O)Nc5c(F)cccc5F)c4)nc4ccccn34)n2)c(OC)cc1N1CCC(N2CCN(S(C)(=O)=O)CC2)CC1", "> 100 µM"]
]}
